Each record here notes measured EC50.
- Test system: Hepatitis C virus
- ASSAY DETAILS: Antiviral activity against recombinant HCV genotype 2a JFH1 infected in human […] for 5 hrs measured on day 3 post infection by luciferase reporter gene assay
- Assay type: functional, organism-based, Hepacivirus hominis
- CONDITION NOTES: JFH-1, Huh-7

Which EC50 reading was recorded for the compound COc1ccccc1N(C(=O)Cc1c[nH]c2ccccc12)C(C(=O)NC1CCCCC1)c1cc(OC)c(OC)c(OC)c1 (stereo not drawn) ?
> 23.2 µM

Query COc1ccc(N(C(=O)Cc2c[nH]c3ccccc23)C(C(=O)NC2CCCCC2)c2ccc(OC)c(OC)c2OC)cc1OC (stereo not drawn) next
> 27.1 µM

And O=C(NC1CCCCC1)C(c1ccccc1)N(C(=O)Cc1c[nH]c2ccccc12)c1ccccc1 (stereo not drawn) ?
> 30.5 µM
